Provenance of the data: the supplement of paper PMC10567573

B1: IFRG15 (parent)
chain: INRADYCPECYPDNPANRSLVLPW

Variants of: B1
assay_info: protein stability index of a GFP-peptide fusion (GPS, HEK-293T) (PSI 1-6); higher = more stable;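 note: lentivirally expressed fusions sorted by FACS into six bins by GFP to DsRed ratio, PSI derived from sequencing read proportions per bin multiplied by bin number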
test_conditions: c terminus: a fixed tail appended
reported_endpoint: protein stability index
Reply with just the number.

Query string: I am curious: what protein stability index value has been reported for INRADYCPECYNDNPANRSLVLPW [P12N] ?
Result string: 1.66

Query string: I am curious: what protein stability index value has been reported for INRADYYPECYPDNPANRSLVLPW [C7Y] ?
Result string: 2.41

Query string: I am curious: what protein stability index value has been reported for INRADYCPECYWDNPANRSLVLPW [P12W] ?
Result string: 1.72
